The measurements presented in this section are drawn from ChEMBL document CHEMBL5120934.

Listing: Kinact of selected molecules
biological target: Rhodesain (Trypanosoma brucei rhodesiense) (UniProt Q95PM0); test: Binding affinity to recombinant Trypanosoma brucei rhodesiense rhodesain assessed as Kinact using Cbz-Phe-Arg-AMC as fluorogenic substrate measured for 10 mins every 30 seconds by fluorescence microplate reader assay
Sequence (Q95PM0 1-450): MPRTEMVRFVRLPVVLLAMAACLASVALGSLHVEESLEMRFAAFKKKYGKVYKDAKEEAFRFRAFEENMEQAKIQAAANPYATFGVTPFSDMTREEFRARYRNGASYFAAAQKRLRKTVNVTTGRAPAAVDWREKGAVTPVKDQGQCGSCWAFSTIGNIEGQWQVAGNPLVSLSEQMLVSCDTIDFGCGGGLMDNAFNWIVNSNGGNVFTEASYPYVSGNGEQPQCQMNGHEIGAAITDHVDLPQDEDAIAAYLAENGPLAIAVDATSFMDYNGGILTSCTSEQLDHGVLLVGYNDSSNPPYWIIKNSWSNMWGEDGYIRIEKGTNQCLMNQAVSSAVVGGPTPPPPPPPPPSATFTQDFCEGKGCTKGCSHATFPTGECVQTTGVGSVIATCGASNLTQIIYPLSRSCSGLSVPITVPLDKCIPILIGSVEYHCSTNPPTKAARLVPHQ
Numeric answer only, unit min⁻¹ assumed.

Consider the reported Kinact for these molecules:
> print(dat)
                                   molecule                            assayed.target  numeric.result
1  CC(=O)/C=C/[C@H](CCc1ccccc1)NC(=O)[C@H](Cc1ccccc1)NC(=O)Nc1ccc(Cl)cc1C(F)(F)F  Rhodesain (Trypanosoma brucei rhodesiense) (UniProt Q95PM0)           0.006
2  CC(=O)/C=C/[C@H](CCc1ccccc1)NC(=O)[C@H](CC(C)C)NC(=O)Nc1ccc(Cl)cc1C  Rhodesain (Trypanosoma brucei rhodesiense) (UniProt Q95PM0)          0.0123

Task: What value of Kinact has been recorded for this entry: CC(=O)/C=C/[C@H](CCc1ccccc1)NC(=O)[C@H](Cc1ccccc1)NC(=O)Nc1ccc(F)cc1
Result: 0.0021
